molecular target: Thromboxane A2 receptor (Rattus norvegicus, UniProt P34978); assay: Tested for antagonistic activity on isolated rat thoracic aorta (thromboxane A2 receptor) precontracted by U-46619 (3 x 10 e-8 M); assay type: functional, tissue-based
Readout name: IC50 (µM)

| Chemical string | Measured on | Endpoint unit | IC50 |
| --- | --- | --- | --- |
| CC(C)c1ccc2c(CCCCCS(=O)(=O)Nc3ccccc3)cc(C(=O)O)c-2cc1 | Thromboxane A2 receptor (Rattus norvegicus, UniProt P34978) | µM | 1.5 |
| CC(C)c1ccc2c(CCCCS(=O)(=O)Nc3ccccc3)cc(S(=O)(=O)O)c-2cc1 | Thromboxane A2 receptor (Rattus norvegicus, UniProt P34978) | µM | 1.5 |
| CC(C)c1ccc2c(CCCS(=O)(=O)Nc3ccc(Cl)cc3)cc(C(=O)O)c-2cc1 | Thromboxane A2 receptor (Rattus norvegicus, UniProt P34978) | µM | 9.1 |

A. CC(C)c1ccc2c(CCCCS(=O)(=O)Nc3ccc(Cl)cc3)cc(C(=O)O)c-2cc1
B. CC(C)c1ccc2c(CCCS(=O)(=O)Nc3ccccc3)cc(S(=O)(=O)O)c-2cc1
C. O=C(O)COc1ccc(CCNS(=O)(=O)c2ccccc2)cc1
D. CC(C)c1ccc2c(CCCC(=O)NS(=O)(=O)c3ccc(Cl)cc3)cc(C(=O)O)c-2cc1
E. CC(C)c1ccc2c(CCCC(=O)NS(=O)(=O)c3ccccc3)cc(S(=O)(=O)O)c-2cc1
Ask: Sort entries by IC50 from minimum to maximum value. In your reply, arrange the labels in the requested order.
Result: C, A, B, D, E
(C: 1.5 µM, A: 2.6 µM, B: 8.7 µM, D: 19 µM, E: 65 µM)

###

molecular target: Thromboxane A2 receptor (Rattus norvegicus, UniProt P34978); assay: Tested for antagonistic activity on isolated rat thoracic aorta (thromboxane A2 receptor) precontracted by U-46619 (3 x 10 e-8 M); format: functional, tissue-based
Readout name: IC50 (µM)

Previously resolved entries follow.
| Chemical string | Readout name | Value |
| --- | --- | --- |
| CC(C)c1ccc2c(CCCS(=O)(=O)Nc3ccc(Cl)cc3)cc(S(=O)(=O)O)c-2cc1 | IC50 | 0.86 |
| CC(C)c1ccc2c(CCCCCS(=O)(=O)Nc3ccc(Cl)cc3)cc(S(=O)(=O)O)c-2cc1 | IC50 | 0.86 |

I. CC(C)c1ccc2c(CCCS(=O)(=O)Nc3ccccc3)cc(C(=O)O)c-2cc1
II. CC(C)c1ccc2c(CCCCS(=O)(=O)Nc3ccc(Cl)cc3)cc(S(=O)(=O)O)c-2cc1
Ask: Which of the two gives a bigger number for IC50: I or II ? Respond with the label that goes with your answer.
Result: I
(I: 12 µM, II: 0.22 µM)

I. CC(C)c1ccc2c(CCCCS(=O)(=O)Nc3ccccc3)cc(C(=O)O)c-2cc1
II. CC(C)c1ccc2c(CCCCCS(=O)(=O)Nc3ccccc3)cc(S(=O)(=O)O)c-2cc1
Ask: Which of the two gives a bigger number for IC50: I or II ? Respond with the label that goes with your answer.
Result: I

###

target: Thromboxane A2 receptor (Rattus norvegicus, UniProt P34978); test: Tested for antagonistic activity on isolated rat thoracic aorta (thromboxane A2 receptor) precontracted by U-46619 (3 x 10 e-8 M); assay type: functional, tissue-based
pIC50: −log10 of the molar value.
Readout name: pIC50

a. CC(C)c1ccc2c(CCCCCS(=O)(=O)Nc3ccc(Cl)cc3)cc(C(=O)O)c-2cc1
b. CC(C)c1ccc2c(CCCC(=O)NS(=O)(=O)c3ccc(Cl)cc3)cc(S(=O)(=O)O)c-2cc1
c. CC(C)c1ccc2c(CCCCNS(=O)(=O)c3ccc(Cl)cc3)cc(S(=O)(=O)O)c-2cc1
d. CC(C)c1ccc2c(CCC/C=N/N=C(\S)Nc3ccccc3)cc(C(=O)O)c-2cc1
Ask: Arrange the above in rising order of pIC50. In your reply, arrange the labels in the requested order.
Result: d, b, a, c
(d: 3.23, b: 4.27, a: 5.77, c: 9.05)

###

Biological target: Thromboxane A2 receptor (Rattus norvegicus, UniProt P34978)
Sequence (P34978 whole entry): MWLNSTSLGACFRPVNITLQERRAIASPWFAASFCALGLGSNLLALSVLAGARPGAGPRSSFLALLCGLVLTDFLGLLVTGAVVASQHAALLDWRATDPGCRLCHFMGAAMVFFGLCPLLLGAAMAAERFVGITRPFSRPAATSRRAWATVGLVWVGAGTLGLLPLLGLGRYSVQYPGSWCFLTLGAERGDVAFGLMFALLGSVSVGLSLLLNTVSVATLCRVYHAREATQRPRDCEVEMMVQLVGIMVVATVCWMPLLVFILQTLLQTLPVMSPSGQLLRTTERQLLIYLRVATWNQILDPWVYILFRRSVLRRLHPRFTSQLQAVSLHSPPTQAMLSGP
Test: Tested for antagonistic activity on isolated rat thoracic aorta (thromboxane A2 receptor) precontracted by U-46619 (3 x 10 e-8 M)
Type: functional, tissue-based
Here the recorded IC50 is given for each entry.

Previously resolved entries follow.
| Chemical string | IC50 |
| --- | --- |
| CC(C)c1ccc2c(CCCC(=O)NS(=O)(=O)c3ccccc3)cc(C(=O)O)c-2cc1 | > 100 µM |
| CC(C)c1ccc2c(CCC/C=N/N=C(\S)Nc3ccc(Cl)cc3)cc(C(=O)O)c-2cc1 | > 100 µM |

Ask: Recall the recorded IC50 for `CC(C)c1ccc2c(CNC(=O)CNS(=O)(=O)c3ccccc3)cc(C(=O)O)c-2cc1` with Thromboxane A2 receptor (Rattus norvegicus, UniProt P34978) and state it.
Result: > 100 µM

###

target: Thromboxane A2 receptor (Rattus norvegicus); experiment: Tested for antagonistic activity on isolated rat thoracic aorta (thromboxane A2 receptor) precontracted by U-46619 (3 x 10 e-8 M); format: functional, tissue-based
pIC50: −log10 of the molar value.
Here the recorded pIC50 is given for each entry.

Previously resolved entries follow.
| Chemical string | Readout name | Value |
| --- | --- | --- |
| CC(C)c1ccc2c(CNC(=O)CNS(=O)(=O)c3ccc(Cl)cc3)cc(C(=O)O)c-2cc1 | pIC50 | < 4.00 |
| CC(C)c1ccc2c(CNC(=O)CNC(=O)c3ccc(Cl)cc3)cc(C(=O)O)c-2cc1 | pIC50 | < 4.00 |

Attention now shifts to the item below.
Ask: I'd like to know its pIC50. The compound in question is `CC(C)c1ccc2c(CCC/C=N/NC(=O)Nc3ccc(Cl)cc3)cc(C(=O)O)c-2cc1`
Result: < 4.00
